# Ki annotations
Target: Cathepsin S (Homo sapiens)
Sequence (P25774 115-331, species assumed): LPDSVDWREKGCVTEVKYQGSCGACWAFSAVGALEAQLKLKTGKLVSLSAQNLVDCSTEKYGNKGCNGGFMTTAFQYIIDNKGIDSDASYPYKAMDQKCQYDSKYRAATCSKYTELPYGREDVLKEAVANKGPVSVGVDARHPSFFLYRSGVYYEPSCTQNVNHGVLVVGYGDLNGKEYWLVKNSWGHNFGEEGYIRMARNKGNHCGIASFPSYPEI
Test: Cathepsin S inhibition assay (fluorogenic peptide substrate)
Assay type: biochemical
Conditions: Table II, compounds of Formula I; read-out: Ki Cat. S

>>> endpoint_value("COc1ccc(NCCNC(=O)[C@H](CC2CCCCC2)NC(=O)c2ccc3nc(N)sc3c2)cc1")
"< 100 nM"
>>> endpoint_value("COc1ccc(NCCNC(=O)[C@H](CC2CCCCC2)NC(=O)c2ccc(F)c(F)c2)cc1")
"< 100 nM"
>>> endpoint_value("COc1ccc(NCCNC(=O)[C@H](CC2CCCCC2)NC(=O)c2cc(Cl)cc(Cl)c2)cc1")
"< 100 nM"
>>> endpoint_value("COc1ccc(NCCNC(=O)[C@H](Cc2ccc(Cl)cc2Cl)NC(=O)c2cccc(C)c2)cc1")
"< 100 nM"
>>> endpoint_value("O=C(Cc1ccc(F)cc1Cl)N[C@@H](CC1CCCCC1)C(=O)NCCNc1ccc(F)cc1")
"< 100 nM"
>>> endpoint_value("COc1ccc(NCCNC(=O)[C@H](Cc2ccc(-c3ccc(OC)c(OC)c3)cc2)NC(=O)c2cccc(C)c2)cc1")
"< 1000 nM"
>>> endpoint_value("O=C(N[C@@H](CC1CCCCC1)C(=O)NCCNc1ccc(OC(F)(F)F)cc1)c1ccc(-c2ccccc2Cl)cc1")
"< 1000 nM"

Please look at the following molecule next.
Task: Report Ki for "COc1ccc(NCCNC(=O)[C@H](Cc2ccccc2)NC(=O)NCCc2ccccc2)cc1" tested on Cathepsin S (Homo sapiens).
Result: < 1000 nM

* * *

Target: UniProtKB P25774
Assay: Cathepsin S inhibition assay (fluorogenic peptide substrate)
Type: biochemical
Settings: comparison compounds in the art; read-out: Ki (CatS)
pKi: −log10 of the molar value.
# pKi annotations

>>> endpoint_value("COc1ccc(NCCNC(=O)[C@@H](CC(C)C)NC(=O)c2ccc(-c3ccccc3)cc2)cc1 [reference compound]")
"> 7.00"

Task: Given the entry CC(C)C[C@H](NC(=O)OCc1ccccc1)C(=O)NCCNc1cccc2ccccc12 [reference compound] , report its measured pKi.
Result: > 6.00

* * *

Biological target: Cathepsin K (Homo sapiens)
Sequence (P43235 115-329, species assumed): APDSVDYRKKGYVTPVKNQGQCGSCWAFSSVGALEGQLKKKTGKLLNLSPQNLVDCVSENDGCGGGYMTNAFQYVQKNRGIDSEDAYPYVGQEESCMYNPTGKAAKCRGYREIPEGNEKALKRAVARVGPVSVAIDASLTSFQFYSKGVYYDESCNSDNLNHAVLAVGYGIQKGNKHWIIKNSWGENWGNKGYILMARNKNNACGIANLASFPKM
Test: Cathepsin K inhibition assay (fluorogenic peptide substrate); selectivity ratio vs cathepsin S
Type: biochemical
Conditions: ratio of cathepsin K inhibition constant to cathepsin S inhibition constant; Table II
readout_kind: Selectivity for Cat. S over Cat. K

Illustrative cases are given below, each with its answer.
>>> endpoint_value("COc1ccc(NCCNC(=O)[C@H](CC2CCCCC2)NC(=O)CNc2ccccc2)cc1")
"+++ (+++, >1000)"
>>> endpoint_value("COc1ccc(NCCNC(=O)[C@H](Cc2ccc(Oc3cc(C)cc(C)c3)cc2)NC(=O)c2cccc(C)c2)cc1")
"++ (++, >100)"
>>> endpoint_value("O=C(N[C@@H](CC1CCCCC1)C(=O)NCCNc1ccc(OC(F)(F)F)cc1)c1ccc(-c2cccc(C(F)(F)F)c2)o1")
"++ (++, >100)"
>>> endpoint_value("COc1ccc(NCCNC(=O)[C@H](CC2CCCCC2)NC(=O)c2cc(Cl)ccc2F)cc1")
"+++ (+++, >1000)"
>>> endpoint_value("O=C(Cc1cccc(Cl)c1)N[C@@H](CC1CCCCC1)C(=O)NCCNc1ccc(F)cc1")
"++ (++, >100)"

Task: Given the entry "COc1ccc(NCCNC(=O)[C@H](Cc2ccccc2)NC(=O)c2cccc(-c3csc(C)n3)c2)cc1" , report its measured Selectivity for Cat. S over Cat. K.
Result: ++ (++, >100)

Task: Given the entry "Cc1cc2ncc(C(=O)N[C@@H](CC3CCCCC3)C(=O)NCCNc3ccc(OC(F)(F)F)cc3)c(C)n2n1" , report its measured Selectivity for Cat. S over Cat. K.
Result: ++ (++, >100)

Task: Given the entry CC(C(=O)N[C@@H](CC1CCCCC1)C(=O)NCCNc1ccc(F)cc1)c1ccc(F)cc1 (stereo partly drawn) , report its measured Selectivity for Cat. S over Cat. K.
Result: ++ (++, >100)

Task: Given the entry "COc1ccc(NCCNC(=O)[C@H](CC2CCCCC2)NC(=O)[C@H](O)c2ccccc2)cc1" , report its measured Selectivity for Cat. S over Cat. K.
Result: ++ (++, >100)

Task: Given the entry "COc1ccc(NCCNC(=O)[C@H](Cc2ccc(C(C)(C)C)cc2)NC(=O)c2cccc(C)c2)cc1" , report its measured Selectivity for Cat. S over Cat. K.
Result: ++ (++, >100)
